target: sodium channel (ENaC), canine bronchial epithelia (Canis lupus familiaris, UniProt A0A8I3MKE6+A0A8I3Q679+Q95165); construct: endogenous in cells; host or cells: primary canine bronchial epithelial cells cultured at air-liquid interface, mounted in Ussing chambers; experiment: In vitro measure of sodium channel blocking activity: inhibition of short circuit current (ISC) in airway epithelial monolayers in Ussing chambers; type: cell-based; details: relative potency for PSA 4022 = 100 using EC50 from PSA 4022 in same run, mean of N runs
Sequence (A0A8I3Q679 1-649): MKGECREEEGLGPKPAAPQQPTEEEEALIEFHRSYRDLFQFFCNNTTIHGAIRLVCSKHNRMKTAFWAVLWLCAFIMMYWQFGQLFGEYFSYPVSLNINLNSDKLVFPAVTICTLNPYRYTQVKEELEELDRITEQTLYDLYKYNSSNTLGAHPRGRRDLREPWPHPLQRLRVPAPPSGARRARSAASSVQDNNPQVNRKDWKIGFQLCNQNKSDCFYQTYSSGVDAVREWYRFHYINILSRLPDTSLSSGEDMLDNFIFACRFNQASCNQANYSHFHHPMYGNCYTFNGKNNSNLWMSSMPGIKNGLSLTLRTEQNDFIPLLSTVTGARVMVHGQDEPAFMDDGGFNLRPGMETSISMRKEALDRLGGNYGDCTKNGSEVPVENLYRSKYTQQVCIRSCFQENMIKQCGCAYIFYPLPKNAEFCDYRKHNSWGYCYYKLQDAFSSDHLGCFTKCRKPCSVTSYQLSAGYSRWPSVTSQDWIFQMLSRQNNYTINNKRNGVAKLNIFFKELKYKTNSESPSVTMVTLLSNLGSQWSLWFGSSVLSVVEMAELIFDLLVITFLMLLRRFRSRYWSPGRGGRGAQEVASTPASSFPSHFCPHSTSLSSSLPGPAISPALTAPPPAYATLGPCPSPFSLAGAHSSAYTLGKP
Sequence (Q95165 whole entry): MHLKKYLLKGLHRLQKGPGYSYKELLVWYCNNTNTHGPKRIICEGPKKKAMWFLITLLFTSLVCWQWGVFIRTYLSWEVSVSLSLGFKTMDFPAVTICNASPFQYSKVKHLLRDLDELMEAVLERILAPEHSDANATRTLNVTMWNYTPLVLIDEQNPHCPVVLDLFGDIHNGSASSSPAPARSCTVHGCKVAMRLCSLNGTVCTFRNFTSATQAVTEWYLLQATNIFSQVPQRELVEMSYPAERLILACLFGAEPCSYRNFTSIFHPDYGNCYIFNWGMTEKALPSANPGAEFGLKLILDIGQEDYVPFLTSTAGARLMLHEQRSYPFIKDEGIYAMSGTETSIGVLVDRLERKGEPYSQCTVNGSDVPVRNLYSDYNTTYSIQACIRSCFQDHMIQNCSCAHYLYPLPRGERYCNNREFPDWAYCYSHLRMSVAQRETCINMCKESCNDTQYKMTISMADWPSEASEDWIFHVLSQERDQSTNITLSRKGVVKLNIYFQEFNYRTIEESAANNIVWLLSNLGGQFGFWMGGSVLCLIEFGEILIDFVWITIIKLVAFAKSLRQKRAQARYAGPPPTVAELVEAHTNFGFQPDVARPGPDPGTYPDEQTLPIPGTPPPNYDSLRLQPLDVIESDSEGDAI
Sequence (A0A8I3MKE6 1-646): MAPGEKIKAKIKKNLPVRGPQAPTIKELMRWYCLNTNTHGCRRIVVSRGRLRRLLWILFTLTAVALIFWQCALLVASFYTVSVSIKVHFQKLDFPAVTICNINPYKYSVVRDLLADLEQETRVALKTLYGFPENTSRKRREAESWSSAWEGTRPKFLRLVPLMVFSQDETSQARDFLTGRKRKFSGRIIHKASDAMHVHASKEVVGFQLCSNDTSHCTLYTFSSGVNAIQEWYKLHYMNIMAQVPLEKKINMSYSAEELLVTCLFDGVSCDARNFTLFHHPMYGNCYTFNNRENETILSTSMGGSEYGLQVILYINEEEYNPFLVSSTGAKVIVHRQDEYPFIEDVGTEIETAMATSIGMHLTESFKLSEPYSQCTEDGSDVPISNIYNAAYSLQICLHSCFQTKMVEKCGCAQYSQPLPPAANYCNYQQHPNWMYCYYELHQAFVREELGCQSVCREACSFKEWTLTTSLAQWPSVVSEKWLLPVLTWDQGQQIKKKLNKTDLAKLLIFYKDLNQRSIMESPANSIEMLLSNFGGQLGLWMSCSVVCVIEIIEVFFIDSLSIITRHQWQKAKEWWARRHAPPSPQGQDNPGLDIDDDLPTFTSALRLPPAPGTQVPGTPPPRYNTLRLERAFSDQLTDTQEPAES
Structures can show the parent of a compound that is named as a salt.
measure: Fold Amiloride** (PSA 4022 = 100) Mean

A: N=C(NCCCCc1ccc(OCCNCC(N)C(N)=O)cc1)NC(=O)c1nc(Cl)c(N)nc1N (stereo not drawn) [PSA 18704, tri-hydrochloride]
B: COC(=O)[C@H](N)CCCc1ccc(CCCCNC(=N)NC(=O)c2nc(Cl)c(N)nc2N)cc1 [PSA 19603]
q: Between A and B , which one has the lower reported Fold Amiloride** (PSA 4022 = 100) Mean value? # respond with the chosen item's label
a: B
(B: 39.4, A: 90.2)

Reference for the values: patent US7875619B2
